# tested-system: UniProt P42336
# Sequence (P42336 whole entry): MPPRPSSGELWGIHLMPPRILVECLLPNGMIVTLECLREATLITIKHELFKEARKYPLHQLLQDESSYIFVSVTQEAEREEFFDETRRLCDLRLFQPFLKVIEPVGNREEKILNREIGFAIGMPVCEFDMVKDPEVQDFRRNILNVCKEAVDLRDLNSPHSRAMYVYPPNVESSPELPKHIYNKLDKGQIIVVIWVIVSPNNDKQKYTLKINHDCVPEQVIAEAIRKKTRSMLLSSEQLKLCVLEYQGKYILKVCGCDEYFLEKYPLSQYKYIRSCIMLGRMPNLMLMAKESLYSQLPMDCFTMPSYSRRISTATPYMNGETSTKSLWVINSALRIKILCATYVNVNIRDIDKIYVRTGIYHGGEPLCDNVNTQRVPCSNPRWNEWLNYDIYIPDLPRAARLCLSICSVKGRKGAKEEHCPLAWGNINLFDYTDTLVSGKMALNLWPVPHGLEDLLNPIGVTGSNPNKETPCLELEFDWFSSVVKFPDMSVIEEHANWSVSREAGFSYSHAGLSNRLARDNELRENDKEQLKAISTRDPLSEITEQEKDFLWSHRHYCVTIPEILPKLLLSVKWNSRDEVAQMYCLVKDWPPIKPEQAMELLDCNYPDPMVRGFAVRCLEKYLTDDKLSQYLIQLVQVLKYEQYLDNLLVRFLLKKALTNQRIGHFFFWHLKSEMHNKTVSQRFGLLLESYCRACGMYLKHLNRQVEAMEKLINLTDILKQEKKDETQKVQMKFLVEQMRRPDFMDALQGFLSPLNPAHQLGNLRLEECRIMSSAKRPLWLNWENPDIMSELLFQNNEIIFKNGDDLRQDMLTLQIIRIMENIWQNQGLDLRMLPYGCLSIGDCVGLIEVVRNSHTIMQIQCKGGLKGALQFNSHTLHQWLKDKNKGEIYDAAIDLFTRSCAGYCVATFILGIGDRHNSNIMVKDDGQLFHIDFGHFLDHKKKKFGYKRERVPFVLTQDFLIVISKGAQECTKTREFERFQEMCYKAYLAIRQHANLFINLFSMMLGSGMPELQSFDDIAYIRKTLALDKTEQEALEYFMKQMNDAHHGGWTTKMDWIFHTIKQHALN
# Sequence (P27986 whole entry partner): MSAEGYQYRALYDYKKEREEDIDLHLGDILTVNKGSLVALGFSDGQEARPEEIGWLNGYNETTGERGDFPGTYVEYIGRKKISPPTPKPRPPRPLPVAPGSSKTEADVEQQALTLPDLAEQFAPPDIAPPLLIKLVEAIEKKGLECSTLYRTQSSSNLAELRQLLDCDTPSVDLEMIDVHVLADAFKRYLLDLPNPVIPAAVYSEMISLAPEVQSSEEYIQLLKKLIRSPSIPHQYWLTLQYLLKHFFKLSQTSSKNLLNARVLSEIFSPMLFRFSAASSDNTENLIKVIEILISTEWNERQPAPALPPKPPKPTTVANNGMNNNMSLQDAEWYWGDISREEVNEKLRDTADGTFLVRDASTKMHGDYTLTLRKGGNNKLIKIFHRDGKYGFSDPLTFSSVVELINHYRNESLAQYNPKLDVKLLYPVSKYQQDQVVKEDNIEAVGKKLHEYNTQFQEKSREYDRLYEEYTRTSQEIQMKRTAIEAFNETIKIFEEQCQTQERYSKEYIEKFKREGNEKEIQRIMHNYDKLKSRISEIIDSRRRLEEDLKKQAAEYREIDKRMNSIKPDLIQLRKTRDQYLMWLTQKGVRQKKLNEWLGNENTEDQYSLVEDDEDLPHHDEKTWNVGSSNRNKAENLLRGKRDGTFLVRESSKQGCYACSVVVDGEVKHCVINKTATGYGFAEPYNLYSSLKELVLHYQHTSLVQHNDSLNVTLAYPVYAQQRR
# assay-text: PI3K ATP depletion assay (Biological Method 1, Assay 3; KinaseGlo luminescence)
# Type: biochemical
# study-conditions: ATP depletion assay; read-out: PI3 Kinase Alpha, IC50
Each entry below carries its reported IC50.

| smiles-repr | tested-system | IC50 |
| --- | --- | --- |
| Nc1ccc(-c2cc(NCc3ccccn3)nc(N3CCOCC3)n2)cn1 | UniProt P42336 | < 1000 nM |
| CS(=O)(=O)c1ccccc1Nc1cc(-c2ccc(N)nc2)nc(N2CCOCC2)n1 | UniProt P42336 | < 1000 nM |
| Nc1ncc(-c2nc(N3CCOCC3)ncc2C(=O)NC2CCOCC2)cn1 | UniProt P42336 | < 10000 nM |
| Nc1ncc(-c2cc(OC3CCOCC3)nc(N3CCOCC3)n2)c(C(F)(F)F)n1 | UniProt P42336 | < 1000 nM |
| CC(=O)N1CCC(Oc2cc(-c3cnc(N)cc3C(F)(F)F)nc(N3CCOCC3)n2)CC1 | UniProt P42336 | < 1000 nM |
| CS(=O)(=O)Nc1ncccc1-c1cc(-c2cnc(N)nc2C(F)(F)F)nc(N2CCOCC2)n1 | UniProt P42336 | < 1000 nM |
| CCOc1cc(Nc2cc(-c3ccc(N)nc3)nc(N3CCOCC3)n2)ccn1 | UniProt P42336 | < 1000 nM |
| Cc1cc(Nc2cc(-c3cnc(N)nc3N)nc(N3CCOCC3)n2)ccn1 | UniProt P42336 | < 1000 nM |
| Nc1cc(C(F)(F)F)c(-c2cc(Nc3nc(-c4ccccc4)cs3)nc(N3CCOCC3)n2)cn1 | UniProt P42336 | < 1000 nM |
| Nc1ccc(-c2cc(NCCc3ccccn3)nc(N3CCOCC3)n2)cn1 | UniProt P42336 | < 10000 nM |
| CC(=O)N1CCC[C@H](Oc2cc(-c3cnc(N)nc3N)nc(N3CCOCC3)n2)C1 | UniProt P42336 | < 1000 nM |
| Nc1ncc(-c2cc(O[C@H]3CCCN(C(=O)OC4CCCC4)C3)nc(N3CCOCC3)n2)c(N)n1 | UniProt P42336 | < 1000 nM |
| Nc1cc(C(F)(F)F)c(-c2cc(Nc3cnc4ccc(OCCN5CCCC5)cc4c3)nc(N3CCOCC3)n2)cn1 | UniProt P42336 | < 1000 nM |
| Cc1c(-c2cnc(N)nc2)nc(N2CCOCC2)nc1-c1cnc(N)nc1 | UniProt P42336 | < 1000 nM |
| CCN(CC)Cc1cnc(Nc2cc(-c3cnc(N)nc3C(F)(F)F)nc(N3CCOCC3)n2)s1 | UniProt P42336 | < 1000 nM |
| N#Cc1cnc(Nc2cc(-c3cnc(N)cc3C(F)(F)F)nc(N3CCOCC3)n2)s1 | UniProt P42336 | < 1000 nM |
| Nc1ncc(-c2cc(OC3CCOCC3)nc(N3CCOCC3)n2)c(=O)[nH]1 | UniProt P42336 | < 1000 nM |
| Nc1cc(C(F)(F)F)c(-c2cc(Cl)nc(N3CCOCC3)n2)cn1 | UniProt P42336 | < 1000 nM |
| CC(C)(C)OC(=O)CNc1ccc(Nc2cc(-c3cnc(N)cc3C(F)(F)F)nc(N3CCOCC3)n2)cn1 | UniProt P42336 | < 1000 nM |
| CS(=O)(=O)N1CCC(Oc2cc(-c3cnc(N)cc3C(F)(F)F)nc(N3CCOCC3)n2)CC1 | UniProt P42336 | < 1000 nM |
| Nc1cc(C(F)(F)F)c(-c2cc(O[C@H]3CCN(C(=O)c4ccccc4)C3)nc(N3CCOCC3)n2)cn1 | UniProt P42336 | < 1000 nM |
| CN(c1cc(-c2cnc(N)nc2)nc(N2CCOCC2)n1)C1CCCCC1 | UniProt P42336 | < 1000 nM |
| Nc1ncc(-c2cc(Nc3ccc4[nH]cnc4c3)nc(N3CCOCC3)n2)cn1 | UniProt P42336 | < 1000 nM |
| N#Cc1cnc(N2CCOCC2)nc1-c1cnc(N)nc1 | UniProt P42336 | < 1000 nM |
| Nc1ncc(-c2cc(Nc3ccc(N4CCNCC4)nc3)nc(N3CCOCC3)n2)cn1 | UniProt P42336 | < 1000 nM |
| Cc1cc(Nc2cc(-c3cnc(N)[nH]c3=O)nc(N3CCOCC3)n2)ccn1 | UniProt P42336 | < 1000 nM |
| N#Cc1ccccc1Nc1cc(-c2ccc(N)nc2)nc(N2CCOCC2)n1 | UniProt P42336 | < 1000 nM |
| Nc1ncc(-c2cc(O[C@@H]3CCOC3)nc(N3CCOCC3)n2)c(C(F)(F)F)n1 | UniProt P42336 | < 1000 nM |
| Nc1ccc(-c2cc(Nc3ccc4ncccc4c3)nc(N3CCOCC3)n2)cn1 | UniProt P42336 | < 1000 nM |
